The values you see were collected from patent US9834542B2.

- target_or_system: LXRβ (Homo sapiens, UniProt P55055)
- Construct: Co-transfection expression plasmids, comprising full-length LXRα (pCMX-h LXRα[…] or LXRβ (pCMX-hLXRβ))
- experimental_protocol: Co-transfection assay (LXRE luciferase reporter), LXRβ
- recorded_conditions: CV-1 cells transfected with pCMX-hLXRβ and LXREx1-Tk-Luciferase; 20 hours incubation
pEC50: −log10 of the molar value.
Mark f for pEC50 values under 7, and t for everything at or above.

[[record]]
compound = "Cc1nc(-c2ccc(OC(F)F)cc2)c(-c2cc(-c3cccc(S(C)(=O)=O)c3)ccc2-n2cc(C(F)(F)F)nc2C)o1 [Example 619]"
qualitative_label = "t"

[[record]]
compound = "CCS(=O)(=O)c1cc(-c2ccc(-n3cc(C(F)(F)F)nc3C)c(-n3nncc3-c3ccc(OC(F)(F)F)cc3)c2)cc(F)c1CO [Example 92]"
qualitative_label = "f"

[[record]]
compound = "Cc1nc(C(F)(F)F)cn1-c1ccc(-c2cc(F)c(CO)c(S(C)(=O)=O)c2)cc1-n1nncc1C(=O)c1cccc(C(F)(F)F)c1 [Example 136]"
qualitative_label = "f"

[[record]]
compound = "Cc1nc(-c2ccccc2C(F)(F)F)c(-c2cc(-c3cccc(S(C)(=O)=O)c3)ccc2-n2cc(C(F)(F)F)nc2C)o1 [Example 629]"
qualitative_label = "f"


* * *

- target_or_system: LXRβ (Homo sapiens, UniProt P55055)
- Construct: Co-transfection expression plasmids, comprising full-length LXRα (pCMX-h LXRα[…] or LXRβ (pCMX-hLXRβ)); expressed in transfected cells; host or cells: CV-1 African Green Monkey Kidney Cells
- experimental_protocol: Co-transfection assay (LXRE luciferase reporter), LXRβ
- Type: cell-based
- recorded_conditions: LXRβ co-transfection; relative to high control 1-(2,4-difluorobenzyl)-2-oxo-6-(4-phenoxyphenyl)-4-(trifluoromethyl)-1,2-dihydropyridine-3-carbonitrile; read-out: % Efficacy
// classify: if (Emax < 70%) 1.0 else 0.0

[[record]]
molecule = "Cc1nc(Cl)cn1-c1ccc(-c2cccc(S(C)(=O)=O)c2)cc1-n1nncc1-c1ccc(Cl)cc1 [Example 150]"
target_or_system = "LXRβ (Homo sapiens, UniProt P55055)"
qualitative_label = 1.0

[[record]]
molecule = "Cc1nc(-c2cc(-c3cc(F)c(CO)c(S(C)(=O)=O)c3)ccc2-n2cc(C(F)(F)F)nc2C)c(-c2ccc(Cl)cc2Cl)o1 [Example 488]"
target_or_system = "LXRβ (Homo sapiens, UniProt P55055)"
qualitative_label = 1.0

[[record]]
molecule = "CCc1nc(C(F)(F)F)cn1-c1ccc(-c2cccc(S(C)(=O)=O)c2)cc1-n1nncc1-c1ccc(OC(F)(F)F)cc1 [Example 227]"
target_or_system = "LXRβ (Homo sapiens, UniProt P55055)"
qualitative_label = 0.0

[[record]]
molecule = "Cc1nc(C(F)(F)F)cn1-c1ccc(-c2cccc(S(C)(=O)=O)c2)cc1-n1nncc1-c1ccc(OC(F)(F)C(F)F)cc1 [Example 23]"
target_or_system = "LXRβ (Homo sapiens, UniProt P55055)"
qualitative_label = 0.0

[[record]]
molecule = "Cc1nc(-c2cc(-c3cc(F)c(CO)c(S(C)(=O)=O)c3)ccc2-n2cc(C(F)(F)F)nc2C)c(-c2ccccc2OC(F)F)o1 [Example 548]"
target_or_system = "LXRβ (Homo sapiens, UniProt P55055)"
qualitative_label = 1.0

[[record]]
molecule = "Cc1nc(C(F)(F)F)cn1-c1ccc(-c2ccc(CO)c(S(C)(=O)=O)c2)cc1-c1nc(CC(C)O)oc1-c1ccc(OC(F)(F)F)cc1 (stereo not shown) [Example 535]"
target_or_system = "LXRβ (Homo sapiens, UniProt P55055)"
qualitative_label = 1.0

[[record]]
molecule = "Cc1nc(-c2cc(-c3cc(F)c(CO)c(S(C)(=O)=O)c3)ccc2-n2cc(C(F)(F)F)nc2C)c(-c2ccc(C(F)(F)F)nc2Cl)o1 [Example 477]"
target_or_system = "LXRβ (Homo sapiens, UniProt P55055)"
qualitative_label = 1.0

[[record]]
molecule = "Cc1nc(C(F)(F)F)cn1-c1ccc(-c2cccc(S(C)(=O)=O)c2)cc1-c1ocnc1-c1ccc(OC(F)(F)F)cc1 [Example 361]"
target_or_system = "LXRβ (Homo sapiens, UniProt P55055)"
qualitative_label = 0.0

[[record]]
molecule = "COc1ccc(-c2cnnn2-c2cc(-c3cccc(S(C)(=O)=O)c3)ccc2-n2cc(C(F)F)nc2C)cc1 [Example 166]"
target_or_system = "LXRβ (Homo sapiens, UniProt P55055)"
qualitative_label = 0.0

[[record]]
molecule = "Cc1nc(-c2ccc(OC(F)(F)F)cc2)c(-c2cc(-c3cc(F)c(CO)c(S(C)(=O)=O)c3)ccc2-n2cc(C(F)(F)F)nc2C)o1 [Example 603]"
target_or_system = "LXRβ (Homo sapiens, UniProt P55055)"
qualitative_label = 0.0

[[record]]
molecule = "Cc1nc(C(F)F)c(C)n1-c1ccc(-c2cccc(S(C)(=O)=O)c2)cc1-n1nncc1-c1ccc(OC(F)(F)F)cc1 [Example 232]"
target_or_system = "LXRβ (Homo sapiens, UniProt P55055)"
qualitative_label = 0.0

[[record]]
molecule = "Cc1nc(-c2cc(-c3cccc(S(C)(=O)=O)c3)ccc2-n2cc(C(F)(F)F)nc2C)c(-c2ccc(OC(F)F)c(OCC3CC3)c2)o1 [Example 382]"
target_or_system = "LXRβ (Homo sapiens, UniProt P55055)"
qualitative_label = 1.0


* * *

- target_or_system: LXRβ (Homo sapiens, UniProt P55055)
- Construct: Co-transfection expression plasmids, comprising full-length LXRα (pCMX-h LXRα[…] or LXRβ (pCMX-hLXRβ))
- Sequence (P55055 1-460): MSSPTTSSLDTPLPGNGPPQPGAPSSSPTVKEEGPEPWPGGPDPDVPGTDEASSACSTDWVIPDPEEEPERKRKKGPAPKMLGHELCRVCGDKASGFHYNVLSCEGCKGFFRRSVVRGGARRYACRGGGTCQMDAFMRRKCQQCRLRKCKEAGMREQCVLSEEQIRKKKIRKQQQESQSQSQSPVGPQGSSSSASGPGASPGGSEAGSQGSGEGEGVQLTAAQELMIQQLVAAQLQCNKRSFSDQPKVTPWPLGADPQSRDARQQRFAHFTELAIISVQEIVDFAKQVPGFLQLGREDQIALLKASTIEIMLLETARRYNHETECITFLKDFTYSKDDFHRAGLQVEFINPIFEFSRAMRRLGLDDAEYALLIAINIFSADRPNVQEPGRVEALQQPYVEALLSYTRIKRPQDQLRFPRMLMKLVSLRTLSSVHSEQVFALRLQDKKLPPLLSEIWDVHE
- Sequence (P19793 1-462 partner): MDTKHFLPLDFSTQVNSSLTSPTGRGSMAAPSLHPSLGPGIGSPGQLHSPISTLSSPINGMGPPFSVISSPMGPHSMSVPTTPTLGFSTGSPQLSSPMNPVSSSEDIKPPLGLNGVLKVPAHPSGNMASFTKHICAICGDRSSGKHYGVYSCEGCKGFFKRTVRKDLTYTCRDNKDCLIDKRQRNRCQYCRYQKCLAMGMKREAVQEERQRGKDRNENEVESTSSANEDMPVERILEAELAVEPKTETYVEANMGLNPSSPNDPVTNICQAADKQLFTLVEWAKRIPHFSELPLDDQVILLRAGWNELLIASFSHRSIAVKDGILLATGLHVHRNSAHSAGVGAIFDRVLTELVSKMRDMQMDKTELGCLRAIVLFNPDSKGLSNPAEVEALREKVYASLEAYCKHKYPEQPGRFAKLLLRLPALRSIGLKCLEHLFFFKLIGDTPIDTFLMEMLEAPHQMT
- experimental_protocol: Co-transfection assay (LXRE luciferase reporter), LXRβ
- recorded_conditions: CV-1 cells transfected with pCMX-hLXRβ and LXREx1-Tk-Luciferase; 20 hours incubation
pEC50: −log10 of the molar value.
parameter_measured: pEC50

[[record]]
compound = "CS(=O)(=O)c1cccc(-c2cc(Cl)c(-n3cnc(C(F)(F)F)c3)c(-n3nncc3-c3ccc(OC(F)(F)F)cc3)c2)c1 [Example 192]"
target_or_system = "LXRβ (Homo sapiens, UniProt P55055)"
meas_value = 6.22

[[record]]
compound = "CCc1nc(C(F)(F)F)cn1-c1ccc(-c2cccc(S(C)(=O)=O)c2)cc1-n1nncc1-c1ccc(OC(F)(F)F)cc1 [Example 227]"
target_or_system = "LXRβ (Homo sapiens, UniProt P55055)"
meas_value = 6.06

[[record]]
compound = "Cc1nc(C(F)F)cn1-c1ccc(-c2cccc(C(C)(C)C(N)=O)c2)cc1-n1nncc1-c1ccc(OC(F)(F)F)cc1 [Example 156]"
target_or_system = "LXRβ (Homo sapiens, UniProt P55055)"
meas_value = 5.79

[[record]]
compound = "Cc1nc(C(F)(F)F)cn1-c1ccc(-c2cccc(S(C)(=O)=O)c2)cc1-c1nc(C(C)C)oc1-c1ccc(OC(F)(F)F)cc1 [Example 559]"
target_or_system = "LXRβ (Homo sapiens, UniProt P55055)"
meas_value = 7.47

[[record]]
compound = "COc1cnc(-c2oc(C)nc2-c2cc(-c3cc(F)c(CO)c(S(C)(=O)=O)c3)ccc2-n2cc(C(F)(F)F)nc2C)cn1 [Example 413]"
target_or_system = "LXRβ (Homo sapiens, UniProt P55055)"
meas_value = 6.37

[[record]]
compound = "Cc1nc(C(F)(F)F)cn1-c1ccc(-c2cc(Cl)c(CO)c(S(C)(=O)=O)c2)cc1-n1nncc1Cc1ccc(Cl)cc1 [Example 122]"
target_or_system = "LXRβ (Homo sapiens, UniProt P55055)"
meas_value = 6.19

